assay: basal HepG2 mitochondrial membrane potential changes, profiling panel, cell-based, JC-1 fluorescence, 24 h, 100 nL compound (AID 1167); conditions: higher = more signal; also: test concentration not given here
OBSERVED PROPERTY: z-score
Just the number, please, no unit after it.

Recorded z-score for CCCCC(O)C1C=CC2C(=O)N(C3CCCCC3)C(=O)C2N1Nc1ccc(OC)cc1 (centres undefined) , please?
-0.307

Check O=C(CS)NCCCCCCNC(=O)[C@H]1C[C@H]2C(=O)NCC(=O)N2[C@H]1c1ccc(O)cc1 too.
-0.32

Check COC(=O)[C@]1(Cc2ccccc2N=[N+]=[N-])N=C(c2ccc(OCCCO)cc2)O[C@@H]1c1ccccc1N=[N+]=[N-] too.
-2.39

Check COC(=O)[C@@]1(Cc2ccccc2)[C@H]2c3cc(C(=O)N4CCCC4)n(C)c3C[C@H]2CN1C(=O)c1ccccc1 too.
0.533

====

assay: A549 lung cancer cell viability effects, profiling panel, resazurin fluorescence, 24 h, PK04 Diversity Set (AID 1171); conditions: higher = more signal, called active from +8 up or from −8 down; also: test concentration not given here
Activity calls are given as the source filed them.
Entries and their z-score values follow.

Below: 4 compounds and their reported z-score.
CC(C)C(=C=CC[C@H](O)c1ccccc1OCCO)C[C@H](O)c1ccccn1
-0.607 (inactive)
O=C(NCc1ccccc1)[C@]1(CCS(=O)(=O)c2ccccc2)N=C(c2ccc(OCCCO)cc2)O[C@@H]1c1ccccc1
-0.704 (inactive)
COC(=O)C[C@H]1O[C@]2(C(=O)N(Cc3ccccc3)c3ccc(NC(C)=O)cc32)[C@@H](C)[C@@H]1[Si](C)(C)c1ccc(OC)cc1
-1.62 (inactive)
CC(C)Cc1ccc(CN2CC[C@@H](NS(=O)(=O)c3ccccc3)C2)cc1
-0.235 (inactive)

Recorded z-score for C=CC[C@@H](OC(=O)Nc1ccc(OC)cc1)c1ccc(O)c2ccccc12 , please?
-0.67 (inactive)

Check COc1ccc(C(=O)Nc2cccc(CN3C(=O)[C@]4(O[C@H](CC(=O)N5CCC[C@H]5CO)[C@@H]([Si](C)(C)c5ccc(OC)cc5)[C@@H]4C)c4ccccc43)c2)cc1 too.
-2.2 (inactive)

Check CO[C@H]1O[C@H](CO)[C@@H](OC(=O)Nc2ccc3c(c2)OCO3)[C@H](OC(=O)Nc2ccccc2)[C@H]1OC(=O)Nc1ccccc1 too.
-3.25 (inactive)

Check O=C1C2C=CC(C(O)c3ccc(-c4ccccc4)s3)N(n3cnnc3)C2C(=O)N1Cc1ccccc1 (stereo not given) too.
-1 (inactive)

Check CC(C)C(O)C1C=CC2C(=O)N(c3ccccc3)C(=O)C2N1Nc1ccc(C#N)cc1 (stereo not given) too.
-0.796 (inactive)

Check CC(C)N1C(=O)C[C@@](C(=O)NCc2ccccc2)(c2ccc([N+](=O)[O-])cc2)[C@H]1c1ccc(CO)cc1 too.
0.0885 (inactive)

Check COCC(=C=CC[C@H](O)c1ccc(OCCO)cc1)C[C@H](O)c1cc(Cl)cc(Cl)c1O too.
0.799 (inactive)

Check COC(=O)[C@@]1(Cc2ccccc2)[C@H]2c3cc(C(=O)N4CCCC4)n(Cc4ccc(C)o4)c3C[C@H]2CN1C(=O)c1ccccc1 too.
-0.646 (inactive)

====

Entries and their z-score values follow.
test: MM1S myeloma cell viability, profiling panel, resazurin fluorescence, basal, 24 h, PK04 Diversity Set (AID 1174); details: higher = more signal, called active from +8 up or from −8 down;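 also: MM1S multiple myeloma cell line; test concentration not given here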
Just the number, please, no unit after it.

COC(=O)[C@@]1(Cc2ccc(F)cc2)[C@H]2c3cc(C(=O)N4CCCC4)n(Cc4cccc5ccccc45)c3C[C@H]2CN1C(=O)c1ccccc1
-1.53
COc1ccc(CCNC(=O)[C@@]2(Sc3ccc(C)cc3)CC(=O)N(Cc3ccccc3Cl)[C@@H]2c2ccc(CO)cc2I)cc1
-2.75
CCOC(=O)C[C@H]1[C@H](OC(=O)Cc2ccc3c(c2)OCO3)[C@@H](NC(=O)c2ccc(-c3ccccc3)cc2)c2cc(OCCCO)ccc2N1C(=O)c1ccccc1
0.106

Consider now this further molecule.
Recorded z-score for C=CC[C@@]1(C(=O)NCC(O)CO)N=C(c2ccc(OCCCO)cc2)O[C@@H]1c1ccccc1N=[N+]=[N-] (some centres undefined) , please?
-0.12

====

experiment: small-molecule binders of probe aInhba, primary screen, biochemical, small-molecule microarray, 635/667 nm fluorescence (AID 1148); details: higher = more signal;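 also: score merges 667nm spot fluorescence with signal-to-noise for antibody binding to printed compounds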
Using composite z-score as the sorting value, the categories are b0 = under 0.03, b1 = from 0.03 up to 0.2, b2 = 0.2 and over

Illustrative cases are given below, each with its answer.
C=C[C@@H](COC(C)=O)N(Cc1ccc([N+](=O)[O-])cc1)S(=O)(=O)c1ccc(Br)cc1
b1
CC(C)C(O)C1C=CC2C(=O)N(c3ccccc3)C(=O)C2N1Nc1ccc(C#N)cc1 (centres undefined)
b2
COCCOC(=O)N1C(=O)[C@@]2(c3cc(C#CCNC(N)=O)ccc31)[C@H](c1ccc(O)cc1)N1[C@H](c3ccccc3)[C@H](c3ccccc3)OC(=O)[C@H]1[C@@H]2C(=O)Nc1nc2ccccc2s1
b0
CCC(CC)C(O)C1C=CC2C(=O)N(c3ccccc3)C(=O)C2N1Nc1ccc(C#N)cc1 (centres undefined)
b2
CCOC(=O)C[C@H]1[C@H](OC(=O)Cc2ccc3c(c2)OCO3)[C@@H](NC(=O)c2ccc(-c3ccccc3)cc2)c2cc(OCCCO)ccc2N1C(=O)c1ccccc1
b1
CCCCC=C[C@@H](NC(=O)c1cccs1)c1ccccc1
b2

Pick a category. Item: COC(=O)C1=CC(CCCO)=CC(C2CC2)N(Cc2sc3ccccc3c2Cl)C=C1C(=O)OC (centres undefined)
b1

Check CCOC(=O)C1=CCC(c2ccc(C#N)cc2)N(S(=O)(=O)c2ccc(C)cc2)C1 (centres undefined) too.
b2

Check COCCOC(=O)N1C(=O)[C@@]2(c3cc(C#CCNC(N)=O)ccc31)[C@H](C(=O)N1CCc3cc(OC)c(OC)cc3C1)[C@H]1C(=O)O[C@H](c3ccccc3)[C@H](c3ccccc3)N1[C@@H]2c1ccc(OCCO)cc1 too.
b0

Check CN(C)C(=O)[C@]1(CCC(=O)OC(C)(C)C)N=C(c2ccc(OCCCO)cc2)O[C@@H]1c1ccccc1N=[N+]=[N-] too.
b1

Check O=C1OCCC=C[C@H]2OC34C=CCN(c5ccc6ccccc6c5)C(=O)[C@H]3N(CCCCCO)C(=O)[C@@H]4C12 (some centres undefined) too.
b0

====

experiment: basal MM1S mitochondrial membrane potential changes, profiling panel, cell-based, JC-1 fluorescence, 24 h, 100 nL compound (AID 1170); details: higher = more signal; also: test concentration not given here
OBSERVED PROPERTY: z-score
Just the number, please, no unit after it.

Below: 3 molecules and their reported z-score.
NC(=O)NCC#Cc1ccc2c(c1)[C@]1(C(=O)N2)[C@H](C(=O)N2CCCCCCC2)[C@H]2C(=O)O[C@H](c3ccccc3)[C@H](c3ccccc3)N2[C@@H]1c1ccc(OCCO)cc1
-0.781
O=C1N(CCS(=O)(=O)c2ccccc2)c2ccccc2C[C@@]12COC(c1ccc(OCCCO)cc1)=N2
-0.554
COc1ccc(CCNC(=O)[C@@]2(c3ccc([N+](=O)[O-])cc3)CC(=O)N(CC34CC5CC(CC(C5)C3)C4)[C@@H]2c2ccc(CO)cc2)cc1
-0.452

Recorded z-score for COc1ccc(CCNC(=O)[C@@]2(Sc3ccc(C)cc3)CC(=O)N(Cc3ccccc3Cl)[C@@H]2c2ccc(CO)cc2I)cc1 , please?
-1.96

Check COc1ccc([Si](C)(C)[C@@H]2[C@@H](CC(=O)N3CCC[C@H]3CO)O[C@]3(C(=O)N(C)c4c(Br)cc(C)cc43)[C@H]2C)cc1 too.
-0.0745

Check C=CC(COC(C)=O)NS(=O)(=O)c1ccc(Br)cc1 (stereo not drawn) too.
0.654

Check CCCCC=C[C@@H](NC(=O)c1ccco1)c1ccccc1 too.
-1.05

Check Cc1ccc(S[C@]2(C(=O)NCC(C)C)CC(=O)N(Cc3ccccc3Cl)[C@@H]2c2ccc(CO)cc2)cc1 too.
0.767

====

Entries and their composite z-score values follow.
test system: Sam68 (KHDRBS1); experiment: Sam68 small-molecule binders, primary screen, biochemical, small-molecule microarray, 635 nm fluorescence (AID 1125); conditions: small-molecule microarray binding, higher = more signal;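 also: score merges 667 nm channel intensity with signal to noise over triplicate slides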
Just the number, please, no unit after it.

Below: 2 compounds and their reported composite z-score.
NC(=O)NCC#Cc1ccc2c(c1)[C@]1(C(=O)N2)[C@H](C(=O)N2CCCCCCC2)[C@H]2C(=O)O[C@H](c3ccccc3)[C@H](c3ccccc3)N2[C@@H]1c1ccc(OCCO)cc1
1.32
Cc1cc(C)cc(N2C(=O)CS(=O)(=O)C2c2cccc([N+](=O)[O-])c2)c1 (stereo not drawn)
0.828

Consider now this further compound.
Recorded composite z-score for C=CCOC(=O)[C@@H]1[C@H]2C(=O)O[C@H](c3ccccc3)[C@H](c3ccccc3)N2[C@H](c2ccc(OCCOC(=O)[C@@H]3C[C@@H]4C(=O)N[C@@H](Cc5ccccc5)C(=O)N4[C@@H]3c3cccc(OCCO)c3)cc2)[C@@]12C(=O)Nc1ccc(I)cc12 , please?
1.31
